- tgt: UapA (Aspergillus nidulans, UniProt Q07307)
- Construct: full-length UapA, C-terminal GFP-type functional tag kept, gpdA promoter, expressed in A. nidulans Δ7 strain lacking 7 major nucleobase transporters; homodimer
- assay-comment: competition of [3H]-xanthine uptake in germinating conidiospores

>  <mol-smiles>
O=c1[nH]c(=O)c2c[nH]nc2[nH]1

>  <unit-spec>
µM

>  <Ki>
103

$$$$
